assay-remarks: Quantitative High-Throughput drug screen in 47 multiple myeloma cell lines against the NCATS MIPE library collection: NCIH929_DSMZ cell viability assay (AID 1918978); also: nearly all actives have a fitted effect of over 35% in size; also: potency is read from the fitted curve at half-maximal effect
conditions-used: NCI-H929 myeloma viability, CellTiter-Glo ATP, 48 h; series mostly up to 45.8 µM
Records with an inconclusive call do not appear. Calls of active or inactive are those of the source. Calls follow the shape of the dose curve; as a rule, active = well fitted cell-killing curve with a large enough effect; inconclusive = small, poorly fitted or top-dose-only effect; inactive = no such curve, though single readings can be large or run the other way.

[
  {
    "compound": "Cc1c(NC(=O)c2ccc(C(C)(C)C)cc2)cccc1-c1cn(C)c(=O)c(Nc2ccc(C(=O)N3CCOCC3)cc2)n1",
    "Potency": "20.9 µM (active)"
  },
  {
    "compound": "COc1ccc2c(Oc3ccc(NC(=O)c4c(C)n(CC(C)(C)O)n(-c5ccccc5)c4=O)cc3F)ccnc2c1",
    "Potency": "20.9 µM (active)"
  },
  {
    "compound": "NC(=O)c1cnc(-c2ccc(C3(N)CCC3)cc2)c(-c2ccccc2)c1",
    "Potency": "1.48 µM (active)"
  },
  {
    "compound": "COc1cccc(-c2cc(=O)c3ccccc3o2)c1N",
    "Potency": "0.332 µM (active)"
  },
  {
    "compound": "CC(C)(C)C(=O)Oc1ccc2c(c1)nc(NC(=O)c1cccc([N+](=O)[O-])c1)n2CCCO",
    "Potency": "inactive"
  },
  {
    "compound": "CN(C[C@@H]1COCCO1)S(=O)(=O)Nc1ccc2ccc3ncc(-c4cnn(C)c4)cc3c(=O)c2c1",
    "Potency": "7.43 µM (active)"
  },
  {
    "compound": "O=C(Nc1cc(Cl)cc2c1[nH]c1cnccc12)c1cccnc1",
    "Potency": "1.87 µM (active)"
  },
  {
    "compound": "CNC(=O)c1ccc2cc(C3(O)CCn4cncc43)ccc2c1 (stereo unspecified)",
    "Potency": "inactive"
  },
  {
    "compound": "COc1ccc2c(Oc3ccc(NC(=O)c4c(C)n(CC(C)(C)O)n(-c5ccccc5)c4=O)nc3)ccnc2c1",
    "Potency": "inactive"
  },
  {
    "compound": "COc1cc2c(cc1OC)CN(CCc1ccc(NC(=O)c3cc(OC)c(OC)cc3NC(=O)c3cnc4ccccc4c3)cc1)CC2",
    "Potency": "8.33 µM (active)"
  },
  {
    "compound": "Cc1cnc(C(=O)O)c[n+]1[O-]",
    "Potency": "inactive"
  },
  {
    "compound": "O=C1C(Cl)=C(NCCN2CCOCC2)C(=O)c2ncccc21",
    "Potency": "7.43 µM (active)"
  },
  {
    "compound": "COc1cc(Nc2ncc(F)c(Nc3ccc4c(n3)NC(=O)C(C)(C)O4)n2)cc(OC)c1OC",
    "Potency": "1.18 µM (active)"
  },
  {
    "compound": "COC(=O)N[C@H](C(=O)N1CCC[C@@H]1c1ncc(-c2ccc(-c3ccc(-c4cnc([C@@H]5CCCN5C(=O)[C@@H](NC(=O)OC)C(C)C)[nH]4)cc3)cc2)[nH]1)C(C)C",
    "Potency": "26.4 µM (active)"
  },
  {
    "compound": "O=c1[nH]cnc2c1ncn2[C@H]1CC[C@@H](CO)O1",
    "Potency": "inactive"
  },
  {
    "compound": "Clc1ccc(C(c2ccc(Cl)cc2)n2cc[n+](CC(OCc3ccc(Cl)cc3Cl)c3ccc(Cl)cc3Cl)c2)cc1 (stereo unspecified)",
    "Potency": "9.35 µM (active)"
  },
  {
    "compound": "O=C(OCC#CCSc1nnc(-c2cccc3ccccc23)o1)c1cc2ccccc2s1",
    "Potency": "inactive"
  },
  {
    "compound": "c1cc(-c2sc(-c3ccncc3)c(-c3ccncc3)c2-c2ccncc2)ccn1",
    "Potency": "8.33 µM (active)"
  },
  {
    "compound": "O=C(O)C(O)Cc1ccc(O)c(O)c1 (stereo unspecified)",
    "Potency": "inactive"
  },
  {
    "compound": "Cc1ccc(C(C)(O)c2nc3ccccc3s2)c(C)c1 (stereo unspecified)",
    "Potency": "inactive"
  },
  {
    "compound": "CCC(=O)NC[C@H](Cc1ccc(OCCc2nc(-c3ccccc3)oc2C)cc1)NC(C)=CC(=O)c1ccc(C(F)(F)F)cc1",
    "Potency": "inactive"
  },
  {
    "compound": "C[C@H]1[C@H](NC(=O)C(=NOC(C)(C)C(=O)O)c2csc(N)n2)C(=O)N1S(=O)(=O)O",
    "Potency": "inactive"
  },
  {
    "compound": "Nc1ncnc2c1ncn2[C@@H]1O[C@H](CO)C[C@@H]1O",
    "Potency": "inactive"
  },
  {
    "compound": "C[N+]1(C)[C@@H]2CC(OC(=O)[C@H](CO)c3ccccc3)C[C@H]1[C@H]1O[C@@H]12 (stereo partly specified)",
    "Potency": "inactive"
  },
  {
    "compound": "CC1(C)CCC[C@@]2(C)[C@@H]1CC[C@@]1(C)OC(=O)C[C@H]21",
    "Potency": "inactive"
  },
  {
    "compound": "O=C(O)c1ccc(-c2cc3cccnc3c(-c3ccc4nonc4c3)n2)cc1",
    "Potency": "26.4 µM (active)"
  },
  {
    "compound": "CC(C)C(C)C=CC(C)C1CCC2C3=CC=C4CC(O)CCC4(C)C3CCC21C (stereo unspecified)",
    "Potency": "inactive"
  },
  {
    "compound": "O=C1NC(=O)C(=Cc2ccc3nccnc3c2)S1",
    "Potency": "3.63 µM (active)"
  },
  {
    "compound": "CC(C)C[C@H](CC(=O)O)C(=O)N[C@@H](Cc1c[nH]c2ccccc12)C(=O)N[C@@H](C)c1ccccc1",
    "Potency": "inactive"
  },
  {
    "compound": "CO[C@H]1C=CO[C@@]2(C)Oc3c(C)c(O)c4c(O)c(c5c(c4c3C2=O)NC2(CCN(CC(C)C)CC2)N=5)=NC(=O)C(C)=CC=C[C@H](C)[C@H](O)[C@@H](C)[C@@H](O)[C@@H](C)[C@H](OC(C)=O)[C@H]1C",
    "Potency": "inactive"
  },
  {
    "compound": "c1ccc2c(Cc3c[nH]c4ccccc34)c[nH]c2c1",
    "Potency": "1.05 µM (active)"
  },
  {
    "compound": "COc1ccc(C2Sc3ccccc3N(CCN(C)C)C(=O)C2OC(C)=O)cc1 (stereo unspecified)",
    "Potency": "inactive"
  },
  {
    "compound": "C[C@]12CC[C@@H]3c4ccc(O)cc4C[C@@H](CCCCCCCCCS(=O)CCCC(F)(F)C(F)(F)F)[C@H]3[C@H]1CC[C@H]2O (stereo partly specified)",
    "Potency": "0.0187 µM (active)"
  },
  {
    "compound": "O=c1c(-c2ccc(O)cc2)coc2cc(O[C@@H]3O[C@H](CO)[C@H](O)[C@H](O)[C@H]3O)ccc12",
    "Potency": "inactive"
  },
  {
    "compound": "CON=C(C(=O)N[C@@H]1C(=O)N2C(C(=O)OCOC(=O)C(C)(C)C)=C(C=Cc3scnc3C)CS[C@H]12)c1csc(N)n1",
    "Potency": "20.9 µM (active)"
  },
  {
    "compound": "CC(=O)Nc1ccc([C@H](C)C(=O)Nc2ncc(C(C)C)s2)cc1",
    "Potency": "0.264 µM (active)"
  }
]
